test: StAR promoter reporter inhibitors, counter-screen for LRH-1 inverse agonist project, cell-based, luminescence, high throughput (AID 651611); settings: StAR promoter luciferase reporter counterscreen, at 3.6 µM, stronger effect = higher value
Classification field: enter fulfilled for inhibition values not below 40%, not fulfilled for values below it.

Inquiry: Quick check: does COC(=O)c1ccc(NC(=O)CSc2nncn2-c2cccnc2)cc1 have inhibition greater than or equal to 40%?
Reply text: not fulfilled

Inquiry: For CC[C@@H](C(=O)[C@@H](C)[C@@H](O)[C@H](C)CCc1ccc(C)c(O)c1C(=O)O)[C@H]1O[C@](CC)([C@H]2CC[C@](O)(CC)[C@H](C)O2)C[C@@H]1C then?
Reply text: fulfilled

Inquiry: Input CCCCCCCCN1C(=O)[C@H](CC(=O)NCC23CC4CC(CC(C4)C2)C3)C[C@@]2(C(=O)OCC)CCCC=C12
Reply text: not fulfilled

Inquiry: Moving on to CC(NC(=O)CCl)c1ccc(Cl)c(Cl)c1 (stereo not given)
Reply text: not fulfilled

Inquiry: And the next one, COc1ccccc1-c1nnc2sc(-c3ccc(N(C)C)cc3)nn12 ?
Reply text: fulfilled

Inquiry: Now give it for Cc1c(C)c2ccc(OCC(=O)Nc3ccccn3)c(C)c2oc1=O too.
Reply text: fulfilled

Inquiry: Can you check CSC1SCC2C(=O)N(C)C(C(C)C)C(=O)OCC(NC(=O)c3cnc4ccccc4n3)C(=O)NC(C)C(=O)N(C)C1C(=O)N(C)C(C(C)C)C(=O)OCC(NC(=O)c1cnc3ccccc3n1)C(=O)NC(C)C(=O)N2C (stereo not given) next?
Reply text: fulfilled

Inquiry: // same read-out, input: Cc1ccc(NC(=O)CSc2ccc3c(c2)OCCO3)c(O)c1
Reply text: not fulfilled

Inquiry: Next entry: COc1cc(C(=O)NC2CCN(C)CC2)ccc1Nc1ncc2c(n1)N(CCc1ccccc1)CCC(=O)N2C
Reply text: fulfilled

Inquiry: Try the compound C/C(=N\NC(N)=S)c1ccc(-n2ccnc2)cc1
Reply text: not fulfilled

Inquiry: Now try N#CC1=C(N2CCOCC2)/C(=C\c2ccccc2)CC1 .
Reply text: not fulfilled

Inquiry: Consider next the compound CC1CCC/C=C/C(=O)c2c(O)cc(O)cc2CC(=O)O1 (stereo not given) in the same way.
Reply text: not fulfilled

Inquiry: Thanks! And COC(=O)c1ccc(NC(=O)CN2CCN(S(=O)(=O)c3cc(Cl)ccc3OC)CC2)cc1 ?
Reply text: not fulfilled

Inquiry: Follow-up entry: COc1cccc(NC(=O)CSc2nnc(-c3cc(C)n(-c4ccccc4)c3C)o2)c1
Reply text: not fulfilled

Inquiry: Now the compound Cc1ccc(S(=O)(=O)Nc2cc(Cl)c(O)c3ncccc23)cc1
Reply text: fulfilled

Inquiry: // query: c1ccc(-c2nnc(-c3ccccn3)nc2NC2CCCCC2)cc1
Reply text: fulfilled

Inquiry: Now give it for CC(NC(=O)c1ccco1)C(c1cccs1)N1CCN(c2ccccc2)CC1 (stereo not given) too.
Reply text: not fulfilled

Inquiry: And then CCN(CC)CCC(=O)N1C/C(=C/c2ccccc2)C(=O)/C(=C\c2ccccc2)C1 , what is it?
Reply text: fulfilled

Inquiry: Continue with Cc1cc(/C=N/n2cnnc2)c(C)n1-c1ccc(OCc2ccc(Cl)cc2Cl)cc1
Reply text: not fulfilled

Inquiry: Check CCC[N+]1(CC#CCC(c2ccccc2)c2ccccc2)CCCCC1 too.
Reply text: not fulfilled

Inquiry: Consider next the compound Cc1c(C)c2ccc(OCC(=O)N3CC[C@@]4(O)CCCC[C@H]4C3)cc2oc1=O in the same way.
Reply text: not fulfilled

Inquiry: Try Cc1cc(C)nc(-n2nc(C)cc2Nc2ccccc2)n1 next.
Reply text: not fulfilled

Inquiry: # repeat for CCOC(=O)c1c2c(n(Cc3ccccc3)c1C)C(=O)C(=O)c1ccccc1-2
Reply text: fulfilled

Inquiry: Let us now turn to COc1cc(-c2cnc3c(NC=O)cc(-c4ccccc4Cl)cn23)cc(OC)c1OC
Reply text: fulfilled

Inquiry: What would you report for Cc1nc(CNS(=O)(=O)c2ccc(Oc3ccccc3)cc2)cs1 ?
Reply text: not fulfilled

Inquiry: Same read-out for O=C1CCN(CCCN2CCC(=O)N(Cc3ccccc3)C2=S)C(=S)N1Cc1ccccc1 ?
Reply text: not fulfilled

Inquiry: Could you do the same for O=C(Nc1ccc(N2CCN(C(=O)c3ccc(Cl)cc3)CC2)cc1)c1ccc([N+](=O)[O-])o1 , please?
Reply text: not fulfilled

Inquiry: Now consider Cc1ccc(S(=O)(=O)NCc2ccncc2)cc1 and answer again.
Reply text: not fulfilled

Inquiry: Another compound to check: O=NN(CCc1ccncc1)c1ccc(OCc2ccccc2)cc1
Reply text: not fulfilled

Inquiry: Consider next the compound Cc1ccc2nc(NC(=O)CSCC(=O)OCC(=O)c3ccccc3)sc2c1 in the same way.
Reply text: not fulfilled

Inquiry: Same for Cc1ccc(-c2csc(NC(=O)C3CCN(S(=O)(=O)c4cccs4)CC3)n2)cc1
Reply text: not fulfilled

Inquiry: Please do the same for COc1cc(/C=N/Nc2snc(SC)c2C#N)ccc1O as well.
Reply text: not fulfilled

Inquiry: And CC(=O)Nc1ccc(Nc2c3ccccc3nc3ccccc23)cc1 ?
Reply text: fulfilled

Inquiry: Follow-up item: O=C(OCC(=O)N1CCN(C(=O)COC(=O)c2ccc(O)cc2O)CC1)c1ccc(O)cc1O
Reply text: not fulfilled

Inquiry: And what about the compound Cc1cc(Br)c(OCc2ccc(C(=O)N/N=C/c3ccc[nH]3)cc2)c(Br)c1 ?
Reply text: fulfilled

Inquiry: What do we get for CCN(CC)CC(C)(C)C(=O)/C=C/c1ccc(/C=C/C(=O)C(C)(C)CN(CC)CC)cc1 ?
Reply text: fulfilled

Inquiry: Also, COc1ccc(-c2oc(=O)c3cc(OC)c(OC)cc3c2C#CCCO)cc1 please.
Reply text: not fulfilled

Inquiry: Continue with CCOc1ccc(NC(=O)Cn2cc(C(=O)C3CC3)c3ccccc32)cc1
Reply text: not fulfilled

Inquiry: And what about the compound Cc1ccc(-c2nc3ncccc3o2)cc1NC(=O)c1ccc([N+](=O)[O-])o1 ?
Reply text: not fulfilled
